Target: T1, human MSLN-FL-his protein (human, UniProt Q13421 296-580)
T1 construct: made in HEK293E cells, purified on nickel column; also called hMSLN-FL-his; human MSLN full-length protein; not shown: His tag
T1 sequence (Q13421 other isoform, or with tags, fused parts or gaps): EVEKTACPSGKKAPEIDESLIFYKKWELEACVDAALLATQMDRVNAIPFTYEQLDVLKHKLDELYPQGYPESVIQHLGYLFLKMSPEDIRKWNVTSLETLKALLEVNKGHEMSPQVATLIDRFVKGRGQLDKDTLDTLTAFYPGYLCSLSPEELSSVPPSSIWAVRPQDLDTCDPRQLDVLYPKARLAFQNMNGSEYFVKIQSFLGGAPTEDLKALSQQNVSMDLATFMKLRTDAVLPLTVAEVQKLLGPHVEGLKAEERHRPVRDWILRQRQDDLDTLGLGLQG
Experiment: competitive ELISA; row F8-19.21; also: test concentration or dose not given here
competition rate reference
All answers are understood in %, so give the number only.

Completed entries (count: 3):
| binder | competition rate / % |
| --- | --- |
| S009-F8-31.22 (antibody, human IgG1, kappa, V domains shown, human-murine chimeric antibody, human IgG1/kappa constant regions) VH: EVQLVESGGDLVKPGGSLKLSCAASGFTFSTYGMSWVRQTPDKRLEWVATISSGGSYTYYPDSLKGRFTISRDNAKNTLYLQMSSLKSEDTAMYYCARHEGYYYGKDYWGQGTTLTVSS VL: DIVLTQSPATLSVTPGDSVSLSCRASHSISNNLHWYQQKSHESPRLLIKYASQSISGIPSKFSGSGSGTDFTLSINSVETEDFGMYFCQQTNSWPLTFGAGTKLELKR | 16.3 |
| S009-F8-15.19 (antibody, human IgG1, kappa, V domains shown, human-murine chimeric antibody, human IgG1/kappa constant regions) VH: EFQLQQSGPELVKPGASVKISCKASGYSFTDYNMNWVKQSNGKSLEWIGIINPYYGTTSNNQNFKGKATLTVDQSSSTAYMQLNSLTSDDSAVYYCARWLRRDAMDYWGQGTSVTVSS VL: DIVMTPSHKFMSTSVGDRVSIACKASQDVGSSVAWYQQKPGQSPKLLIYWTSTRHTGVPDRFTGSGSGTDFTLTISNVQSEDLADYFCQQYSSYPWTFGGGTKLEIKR | 46.9 |
| S009-F8-27.1 (antibody, human IgG1, kappa, V domains shown, human-murine chimeric antibody, human IgG1/kappa constant regions) VH: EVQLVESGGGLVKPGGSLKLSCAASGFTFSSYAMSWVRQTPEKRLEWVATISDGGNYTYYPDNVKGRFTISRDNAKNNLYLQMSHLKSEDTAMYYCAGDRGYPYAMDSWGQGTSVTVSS VL: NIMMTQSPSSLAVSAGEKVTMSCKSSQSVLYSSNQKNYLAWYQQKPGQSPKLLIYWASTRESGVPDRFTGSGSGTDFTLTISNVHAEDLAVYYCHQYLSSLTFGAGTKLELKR | 90.2 |

Turning now to a further binder:
(Q) Give the reported competition rate for this binder. S009-F8-13.8 (antibody, human IgG1, kappa, V domains shown, human-murine chimeric antibody, human IgG1/kappa constant regions) VH: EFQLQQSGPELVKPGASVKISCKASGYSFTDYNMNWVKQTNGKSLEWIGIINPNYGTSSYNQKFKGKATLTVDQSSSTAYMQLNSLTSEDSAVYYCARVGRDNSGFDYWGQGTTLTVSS VL: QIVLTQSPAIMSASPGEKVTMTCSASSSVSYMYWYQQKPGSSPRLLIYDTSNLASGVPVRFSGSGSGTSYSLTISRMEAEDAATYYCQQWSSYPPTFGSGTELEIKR
(A) 96.5
